Origin of measurements: ChEMBL document CHEMBL5346880

assayed_target: UniProt P11388
Sequence (P11388 whole entry): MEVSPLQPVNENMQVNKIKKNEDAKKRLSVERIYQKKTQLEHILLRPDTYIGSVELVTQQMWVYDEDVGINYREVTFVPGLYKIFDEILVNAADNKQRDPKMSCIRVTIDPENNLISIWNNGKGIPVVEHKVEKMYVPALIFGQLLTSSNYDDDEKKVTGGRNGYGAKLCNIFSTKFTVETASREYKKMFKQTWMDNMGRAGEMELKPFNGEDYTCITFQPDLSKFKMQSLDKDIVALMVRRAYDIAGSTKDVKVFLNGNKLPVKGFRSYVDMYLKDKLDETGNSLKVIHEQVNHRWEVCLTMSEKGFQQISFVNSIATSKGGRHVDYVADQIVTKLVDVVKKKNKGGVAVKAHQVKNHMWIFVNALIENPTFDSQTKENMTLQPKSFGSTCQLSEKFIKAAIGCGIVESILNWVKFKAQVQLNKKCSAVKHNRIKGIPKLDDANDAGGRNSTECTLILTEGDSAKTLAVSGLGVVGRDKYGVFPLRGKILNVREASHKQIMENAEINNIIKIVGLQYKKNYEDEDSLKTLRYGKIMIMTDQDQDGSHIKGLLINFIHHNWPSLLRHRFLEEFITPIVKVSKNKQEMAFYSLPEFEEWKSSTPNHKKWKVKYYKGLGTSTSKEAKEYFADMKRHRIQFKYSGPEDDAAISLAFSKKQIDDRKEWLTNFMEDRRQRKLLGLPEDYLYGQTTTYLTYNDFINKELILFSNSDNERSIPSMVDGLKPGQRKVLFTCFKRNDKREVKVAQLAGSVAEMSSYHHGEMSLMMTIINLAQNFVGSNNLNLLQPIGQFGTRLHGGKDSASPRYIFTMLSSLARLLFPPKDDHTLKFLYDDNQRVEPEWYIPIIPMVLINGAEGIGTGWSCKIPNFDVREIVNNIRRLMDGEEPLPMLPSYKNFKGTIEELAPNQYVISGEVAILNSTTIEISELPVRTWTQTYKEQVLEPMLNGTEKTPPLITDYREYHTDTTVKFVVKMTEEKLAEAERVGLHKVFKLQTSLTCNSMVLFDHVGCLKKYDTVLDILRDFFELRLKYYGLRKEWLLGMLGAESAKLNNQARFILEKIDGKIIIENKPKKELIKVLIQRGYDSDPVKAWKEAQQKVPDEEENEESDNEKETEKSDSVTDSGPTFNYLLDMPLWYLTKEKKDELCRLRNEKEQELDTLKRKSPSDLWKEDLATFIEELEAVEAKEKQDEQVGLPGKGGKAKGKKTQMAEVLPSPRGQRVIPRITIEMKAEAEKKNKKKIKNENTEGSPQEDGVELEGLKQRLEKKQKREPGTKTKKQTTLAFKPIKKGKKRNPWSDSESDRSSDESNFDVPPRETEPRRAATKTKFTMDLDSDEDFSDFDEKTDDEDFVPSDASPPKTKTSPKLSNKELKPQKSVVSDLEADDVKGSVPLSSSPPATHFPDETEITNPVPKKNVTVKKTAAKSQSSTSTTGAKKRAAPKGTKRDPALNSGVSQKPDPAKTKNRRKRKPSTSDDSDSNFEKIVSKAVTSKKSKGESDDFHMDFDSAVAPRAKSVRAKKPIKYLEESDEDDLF
method: Inhibition of human DNA topoisomerase 2 alpha assessed as relaxation of supercoiled plasmid pNO1 DNA incubated for 30 mins by fluorescence based analysis
pIC50: −log10 of the molar value.
Values of pIC50 greater than or equal to 5 map to label 1; values below map to label 0.

Say whether Cc1[nH]c(C(=O)Nc2ccccc2OCc2cccc(C(=O)N3CCCC(N)C3)c2)c(Cl)c1Cl (centres undefined) shows pIC50 of 5 or more.
label 0

Hi, just wondering whether CCc1cnc(C(=O)Nc2ccc(C(N)=O)cc2OC(C)C)[nH]1 shows pIC50 of 5 or higher.
label 0

# check: pIC50 of Cc1[nH]c(C(=O)Nc2ccc(C(=O)NCC3CCNCC3)cc2OC(C)C)c(Cl)c1Cl.Cl is greater than or equal to 5
label 1

Check the entry CCc1nc2nc(Nc3ccc4nc(OCCN5CCOCC5)ccc4c3)nc(NC(C)(C)C)c2[nH]1 : does pIC50 equal or exceed 5?
label 1

Record COc1ccc(NC(=O)c2[nH]c(C)c(Br)c2Br)c(C(=O)NCCc2ccc(C(=O)O)cc2)c1 ; criterion: pIC50 no lower than 5. Met?
label 0

Dear colleague, could you confirm whether Cc1[nH]c(C(=O)Nc2cc(C(N)=O)ccc2OC2CCNC2)c(Cl)c1Cl (centres undefined) has pIC50 at or above 5?
label 0

Dear colleague, could you confirm whether Cc1[nH]c(C(=O)Nc2cc(C(=O)O)ccc2OC2CCN(C(=O)OC(C)(C)C)CC2)c(Cl)c1Cl has pIC50 at or above 5?
label 0

Dear colleague, could you confirm whether COC(=O)[C@@H](C)NC(=O)c1ccc(NC(=O)c2[nH]c(C)c(Cl)c2Cl)c(OC2CCNCC2)c1 has pIC50 at or above 5?
label 0

Please indicate if the recorded pIC50 for Cc1[nH]c(C(=O)Nc2ccc(C(=O)N[C@@H](Cc3ccccc3)C(=O)O)cc2OC(C)C)c(Cl)c1Cl meets or exceeds 5.
label 1
